Molecular target: T1, APP
T1 construct: His-tagged; coated protein in the ELISA; also called APP-His (Acro Biosystems)
Experiment: ELISA on coated APP-His, 150 ng IgG1; None 0.092
The following binders are listed with their measured ELISA Absorbance (405 nm-570 nm) values.
Simply state the number, no unit and no words.

Solved entries:
Fill blank: measured ELISA Absorbance (405 nm-570 nm) of the binder HW-101 chimeric rabbit-human IgG1 LA/LA/PG (antibody, V domains shown, Fc-silenced (L234A/L235A/P329G) IgG1, lambda; Alexa Fluor 647-labeled in single-step flow cytometry; Cluster C-97) VH: QEQLVESGGRLVTPGTPLTLTCKASGFSLGKYDMSWVRQAPGKGLEWIGTIYAGSGSTWYASWAKGRFTISKTSTTVDLKMTSLTTEDTATYFCARDFLGVNSIWGPGTLVTISS VL: SFVLTQPASVQVNLGQTVSLTCTADTLSRSYASWYQQKPDQAPVLLIHRDTSRPSGVPDRFSGSNSGNTATLTISGAQAGDEADYYCATSDGSGSNFHFVFGGGTQLTVTG is ____.
0.061

Fill blank: measured ELISA Absorbance (405 nm-570 nm) of the binder HW-16 chimeric rabbit-human IgG1 LA/LA/PG (antibody, V domains shown, Fc-silenced (L234A/L235A/P329G) IgG1, kappa; Alexa Fluor 647-labeled in single-step flow cytometry; Cluster C-45) VH: QSLEESGGRLVTPGTPLTLTCTASGFSLSSYAMSWVRQAPGKGLEWIGTMPTGGGTYYASWAKGRFTISKTSTTVDLQITSPTTEDTATYFCAKHWNIWGPGTLVTISS VL: DIVLTQTPSSTSTAVGDTVTINCRASQSIGRNLAWFQQKPGQPPKLLIYRASNLASGVPSRFKGSGSRTQFTLTISGVQREDAATYYCLGSYSSSDTAFGGGTELEILR is ____.
0.225

Pending binder:
Fill blank: measured ELISA Absorbance (405 nm-570 nm) of the binder HW-28 chimeric rabbit-human IgG1 LA/LA/PG (antibody, V domains shown, Fc-silenced (L234A/L235A/P329G) IgG1, lambda; Alexa Fluor 647-labeled in single-step flow cytometry; Cluster C-45) VH: QKQLVESGGRLVTPGTPLTLTCTASGFSLSSNAMSWVRQAPGEGLQWIGTISSGGSTYYASWAKGRFTISKTSTTVTLKMTSLTTEDTATYFCARGADLHRLWGPGTLVTVSS VL: SFVLTQPASVQVNLGQTVSLTCTGKPLSRSFASWYQQKPGQAPVLVIYRDTSRPSGVPDRFSGSSSGNTATLTISGAQAGDEADYYCATSDGSGSSYQYVFGGGTQLTVTG is ____.
0.144
